Tested on: Gastric Acid Secretion Induced by Histamine
EXPERIMENT: Inhibition effect on gastric acid secretion induced by histamine in pylorus ligated rat (subcutaneous)
Assay type: in vivo, male Wistar rat
MEASUREMENT PARAMETERS: Rattus norvegicus; 0.2 mg/kg SC; histamine 3 mg/kg SC; average of five runs; read-out: Secretion of Gastric Acid in Rat, Inhibition Rate (%)
Can you tell me inhibition in vivo at 0.2 mg/kg for the items I'm about to list?
Answers are plain numbers, in %.

Take a look at these entries with their results.
| RECORD SMILES | ASSAY READOUT | RESULT |
| --- | --- | --- |
| CNc1c(NC/C=C\COc2cc(CN3CCCCC3)ccn2)c(=O)c1=O | inhibition in vivo at 0.2 mg/kg | 60 |
| O=c1nc(NC/C=C\COc2cc(CN3CCCCC3)ccn2)[nH]cc1Cc1cccnc1 | inhibition in vivo at 0.2 mg/kg | 40 |

Attention now turns to another entry.
-- ask Fill in the blank: the reported inhibition in vivo at 0.2 mg/kg of "Nc1nsnc1NC/C=C\COc1cc(CN2CCCCC2)ccn1" is ____.
-- reply 61
